Taken from the supplement of paper PMC10567573.

Assay: protein stability index of a GFP-peptide fusion (GPS, HEK-293T) (PSI 1-6); higher = more stable;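 further: 24-mer peptide tiles fused after GFP, lentivirally expressed, FACS-sorted into six equal bins by GFP/DsRed ratio, decoded by Illumina sequencing, PSI is the read-weighted mean bin number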
Details: treatment: MLN4924 1 uM, 8 h; c terminus: a fixed tail appended
measure: protein stability index
The response must contain the number and no unit.

1. FTFEGFSRLRFLNLGRMIDWVPVE [ZER1]    2.81
2. SSADDASAWSNIQEAPLQDDSCLN [FAN1]    5.33
3. PHQTSKMENLPGLASGPGKYMPHL    3.65
4. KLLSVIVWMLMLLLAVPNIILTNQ [P2RY14]    3.21
5. GAVAPPVSGDLTKEDIDLIDILWR [NFE2L1]    3.67
6. NEEIQSFIYSLKQMLLNVEANSAK [FSD1]    2.72

input: State its protein stability index for this sequence: KPYKCTLCGENFSHRSNLIRHQRI [ZNF263]
output: 3.43

input: State its protein stability index for this sequence: FGGVDGLLAGGEKATMQNLNDRLA [KRT17]
output: 3.69

input: State its protein stability index for this sequence: CVTLVWRMPDEDSKIDHYVLEYRR [FSD1]
output: 1.93
